System: Schistosoma mansoni schistosomula (NMRI);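 note: visual microscopic scoring of shape, motility and density changes versus 0.5% DMSO solvent controls, one point per descriptor, degeneracy or death scored 4, mean of duplicate wells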
Assay: phenotypic severity score (0-4); higher = more antischistosomal effect, active = 2 or more
Settings: 72 h; 10 µM
Recorded phenotypic severity score by entry
PROPERTY: phenotypic severity score

> print(dat)
                                   compound                             target.system  result.number
1  Cc1nn(C)c(C)c1NS(=O)(=O)c1c(Cl)cc(-c2ccnc(N3CCNCC3)c2)cc1Cl  Schistosoma mansoni schistosomula (NMRI)              0
2  O=C1O[C@@H](CO)CN1c1cc(F)c(C2=CCN(Cc3ccccc3)CC2)c(F)c1  Schistosoma mansoni schistosomula (NMRI)              2
3  CO/N=C(\C(=O)OC)c1ccccc1CO/N=C(\C)c1cccc(C(F)(F)F)c1  Schistosoma mansoni schistosomula (NMRI)              0
4  CC1COC(Cn2cncn2)(c2ccc(Oc3ccc(Cl)cc3)cc2Cl)O1 (centres undefined)  Schistosoma mansoni schistosomula (NMRI)              2
5  O=C1O[C@@H](COc2ccon2)CN1c1cc(F)c(C2=CCN(Cc3ccccc3)CC2)c(F)c1  Schistosoma mansoni schistosomula (NMRI)              0
6  CC1(C)OB(O)c2ccc(C3=NOC(c4cc(Cl)c(F)c(Cl)c4)(C(F)(F)F)C3)cc21 (centres undefined)  Schistosoma mansoni schistosomula (NMRI)              1
7  Cc1cccc(C(=O)Nc2ccnc(N(C)C3CCN(CC(C)C)CC3)c2)c1  Schistosoma mansoni schistosomula (NMRI)              0
8  CO[C@@H]1CN(c2ccc(C#CC3(O)CN4CCC3CC4)c(Cc3ccccc3)n2)C[C@H]1O (some centres undefined)  Schistosoma mansoni schistosomula (NMRI)              0
9  CO/C=C(/C(=O)OC)c1ccccc1Oc1cc(Oc2ccccc2C#N)ncn1  Schistosoma mansoni schistosomula (NMRI)              0

Data origin: the supplement of paper PMC6805474
